Target: KRAS G12C (Homo sapiens (Human), UniProt P01116, C118A/G12C)
Sequence (P01116 other isoform, or with tags, fused parts or gaps G12C/C118A): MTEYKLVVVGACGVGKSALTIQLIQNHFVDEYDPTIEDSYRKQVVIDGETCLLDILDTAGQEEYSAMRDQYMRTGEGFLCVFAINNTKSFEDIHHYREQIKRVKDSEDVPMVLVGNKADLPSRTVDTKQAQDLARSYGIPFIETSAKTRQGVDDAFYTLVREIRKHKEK
Assay: 2 h coupled exchange assay
Type: biochemical
Settings: Avg 2 h Coupled exchange IC50, 2 h compound pre-incubation, SOS-mediated nucleotide exchange
pIC50: −log10 of the molar value.
Measurement label: pIC50

The examples below pair each entry with its known result.
1. C=CC(=O)N1CC2(CCN(c3nc4c(c(-c5cc(O)ccc5C)c3Cl)COC(C)(C)C4)C2)C1 [Example 2-79]; 7.15
2. C=CC(=O)N1CC2(CCN(c3nc4c(c(-c5c(C)c(C)cc6cnn(C)c56)c3C#N)COC(C)(C)C4)C2)C1 [Example 13-90]; 7.57
3. C=CC(=O)N1CC2(CCN(c3nc4c(c(-c5cc(O)cc6ccccc56)c3C#N)C3CCC4C3)C2)C1 (stereo not shown); 7.17

(I) C=CC(=O)N1CC2(CCN(c3nc(-c4c(C)ccc5[nH]ncc45)c4ccc(C)cc4n3)C2)C1
(II) C=CC(=O)N1CC2(CCN(c3cc4c(c(-c5c(C)ccc6[nH]ncc56)c3C#N)COCC4)C2)C1 (single isomer, unassigned) [Example 2-99]
(III) C=CC(=O)N1CC2(CCN(c3nc4c(c(-c5c(C)c(Cl)cc6cnn(C)c56)c3C)CCN(C(C)C)C4)C2)C1 [Example 12-22]
(IV) C=CC(=O)N1CC2(CCN(c3nc4c(c(-c5c(C)ccc6cn[nH]c56)c3C)CCC(C)(C)C4)C2)C1 [Example 2-23]
Q: List by increasing pIC50. # output: labels, in the requested order
Ans: I, II, IV, III

###

Target: KRAS G12C (Homo sapiens (Human), UniProt P01116, C118A/G12C)
Experiment: 2 h coupled exchange assay
Type: biochemical
Conditions: Avg 2 h Coupled exchange IC50, 2 h compound pre-incubation, SOS-mediated nucleotide exchange
pIC50: −log10 of the molar value.
Measurement label: pIC50

As a guide, the following entries are already answered.
1. C=CC(=O)N1CC2(CCN(c3nc4c(c(-c5cc(O)cc(C(F)(F)F)c5F)c3C)CCC(C)(C)C4)C2)C1; 6.07
2. C=CC(=O)N1CC2(CCN(c3nc4cc(F)ccc4c(-c4c(C)ccc5[nH]ncc45)c3C)[C@@H]2C)C1 (single isomer, unassigned); 4.83
3. C=CC(=O)N1CC2(CCN(c3nc4c(c(-c5c(C)ccc6cnn(C)c56)c3C#N)CO[C@H](C)C4)C2)C1; 6.07

(1) C=CC(=O)N1CC2(CCN(c3nc4c(F)cccc4c(-c4c(C)ccc5[nH]ncc45)c3C#N)C2=O)C1
(2) C=CC(=O)N1CC2(CCN(c3nc4c(c(-c5c(C)ccc6cnn(C)c56)c3Cl)COC(C)(C)C4)C2)C1 (single isomer, unassigned) [Example 2-87]
Q: Given 1 and 2 , report the one with the higher recorded pIC50. Identify your pick by its label.
Ans: 2
(2: 6.94, 1: 5.17)

###

Target: KRAS G12C (Homo sapiens (Human), UniProt P01116, C118A/G12C)
Test: 2 h coupled exchange assay
Type: biochemical
Conditions: Avg 2 h Coupled exchange IC50, 2 h compound pre-incubation, SOS-mediated nucleotide exchange
pIC50: −log10 of the molar value.
Measurement label: pIC50

1. C=CC(=O)N1CC2(CCN(c3nc4c(c(-c5c(C)ccc6[nH]ncc56)c3Cl)COC(C)(C)C4)C2)C1 (single isomer, unassigned) [Example 2-84]; 6.09

(1) C=CC(=O)N1CC2(CCN(c3nc4c(c(-c5c(C)ccc6cnn(C)c56)c3C#N)CCC(C)(C)C4)C2)C1 [Example 13-143]
(2) C=CC(=O)N1CC2(CCN(c3nc4c(c(-c5cc(O)c(F)c6ccccc56)c3C#N)CCC3CC43)C2)C1 (stereo not drawn)
(3) C=CC(=O)N1CC2(CCN(c3nc4c(c(-c5ccccc5Cl)c3C#N)CC(C)(C)C4)C2)C1 (single isomer, unassigned) [Example 13-25]
(4) C=CC(=O)N1CC2(CCN(c3nc4c(c(-c5c(C)ccc6cnn(C)c56)c3C#N)[C@H]3C[C@@H](C4)C3)C2)C1 (single isomer, unassigned) [Example 13-133]
(5) CN(C)C/C=C/C(=O)N1CC2(CCN(c3nc4c(c(-c5cc(O)cc6ccccc56)c3C#N)CC[C@@H]3C[C@H]43)C2)C1 (atropisomer, axis not shown; (P))
Q: Returns the items ordered by pIC50, from maximum to minimum. Output the labels ranked as instructed.
Ans: 1, 4, 5, 3, 2
(1: 7.48, 4: 7.19, 5: 6.89, 3: 6.47, 2: 6.25)
